- System: RS4;11 (BCL-2 dependent acute lymphoblastic leukemia cell line)
- method.description: RS4;11 Cell Proliferation Assay
- Assay type: cell-based
- test.conditions: Homo sapiens, RS4-11, RS4;11 cells, read-out: Cellular proliferation assay (IC50, nM) RS4
# maps each entry to its IC50

molecule	IC50 / nM
COc1cc(CN2CCN(C3CC4(C3)CN(c3ccc(C(=O)NS(=O)(=O)c5ccc(NC[C@H]6CC[C@](C)(O)CC6)c([N+](=O)[O-])c5)c(Oc5cnc6[nH]cc(F)c6c5)c3)C4)[C@H](c3ccccc3C(C)C)C2)cc2c1OC(C)(C)C=C2 [Example 330]	0.18
CC(C)c1ccccc1C1CN(C(=O)c2ccccc2)CCN1C1CC2(CCN(c3ccc(C(=O)NS(=O)(=O)c4ccc(NC[C@H]5CC[C@](C)(O)CC5)c([N+](=O)[O-])c4)c(Oc4cnc5[nH]ccc5c4)c3)CC2)C1 (stereo partly shown) [Example 60]	0.35
COc1cc(CN2CCN(C3CC4(C3)CN(c3ccc(C(=O)NS(=O)(=O)c5ccc(NC[C@H]6CC[C@](C)(O)CC6)c([N+](=O)[O-])c5)c(Oc5cnc6[nH]cc(F)c6c5)c3)C4)[C@H](c3ccccc3C(C)C)C2)cc2ccoc12 [Example 306]	0.12
C#Cc1ccc(CN2CCN(C3CC4(CCN(c5ccc(C(=O)NS(=O)(=O)c6ccc(NC[C@H]7CC[C@](C)(O)CC7)c([N+](=O)[O-])c6)c(Oc6cnc7[nH]ccc7c6)c5)CC4)C3)C(c3ccccc3C(C)C)C2)cc1OC (stereo partly shown) [Example 162]	0.373

* * *

# maps each entry to its IC50
- target: recombinant human Bcl-2-G101V protein (Homo sapiens (Human), UniProt P10415, G101V)
- method.description: Bcl-2-G101V TR-FRET Assay
- Assay type: binding
- test.conditions: Bcl-2 G101V mutant, TR-FRET; read-out: Biochemical assay (IC50, nM) Bcl-2 G101V
parameter: IC50 (nM)

smiles.notation	parameter	numeric.result
COc1ccc(CN2CCN(C3CC4(C3)CN(c3ccc(C(=O)NS(=O)(=O)c5ccc(NC[C@H]6CC[C@](C)(O)CC6)c([N+](=O)[O-])c5)c(Oc5cnc6[nH]ccc6c5)c3)C4)[C@H](c3ccccc3C(C)C)C2)cc1	IC50	0.17
CCc1ccc(CN2CCN(C3CC4(C3)CN(c3ccc(C(=O)NS(=O)(=O)c5ccc(NC[C@H]6CC[C@](C)(O)CC6)c([N+](=O)[O-])c5)c(Oc5cnc6[nH]cc(F)c6c5)c3)C4)[C@H](c3ccccc3C(C)C)C2)cc1OC	IC50	1.3
CC(C)c1ccccc1[C@@H]1CN(Cc2ccc3c(c2)OCC3)CCN1C1CC2(CCN(c3ccc(C(=O)NS(=O)(=O)c4ccc(NC[C@H]5CC[C@](C)(O)CC5)c([N+](=O)[O-])c4)c(Oc4cnc5[nH]cc(F)c5c4)c3)CC2)C1	IC50	0.6
COc1cc(CN2CCN(C3CC4(C3)CN(c3ccc(C(=O)NS(=O)(=O)c5ccc(NC[C@H]6CC[C@](C)(O)CC6)c([N+](=O)[O-])c5)c(Oc5cnc6[nH]cc(F)c6c5)c3)C4)[C@H](c3ccccc3C(C)C)C2)cc2occc12	IC50	1.1

* * *

- target: recombinant human Bcl-2 D103Y protein (Homo sapiens (Human), UniProt P10415, D103Y)
- method.description: Bcl-2-D103Y Biochemical Assay (TR-FRET)
- Type: binding
- test.conditions: ratio of IC50
# maps each entry to its Ratio of Bcl-2 D103Y/Bcl-2 WT

molecule	Ratio of Bcl-2 D103Y/Bcl-2 WT
COc1cc(CN2CCN(C3CC4(C3)CN(c3ccc(C(=O)NS(=O)(=O)c5ccc(NC[C@H]6CC[C@](C)(O)CC6)c([N+](=O)[O-])c5)c(Oc5cnc6[nH]cc(F)c6c5)c3)C4)[C@H](c3ccccc3C(C)C)C2)cc(C)c1OC	1.7
CC(C)c1ccccc1[C@@H]1CN(Cc2ccc(F)cc2)CCN1C1CC2(CCN(c3ccc(C(=O)NS(=O)(=O)c4ccc(NC[C@H]5CC[C@](C)(O)CC5)c([N+](=O)[O-])c4)c(Oc4cnc5[nH]ccc5c4)c3)CC2)C1 (single isomer, unassigned) [Example 28a]	2.1
COc1cc(CN2CCN(C3CC4(C3)CN(c3ccc(C(=O)NS(=O)(=O)c5ccc(NC[C@H]6CC[C@](C)(O)CC6)c([N+](=O)[O-])c5)c(Oc5cnc6[nH]cc(F)c6c5)c3)C4)[C@H](c3ccccc3C(C)C)C2)ccc1OC1CCC1	1.4
[2H]C([2H])([2H])Oc1cc(CN2CCN(C3CC4(C3)CN(c3ccc(C(=O)NS(=O)(=O)c5ccc(NC[C@H]6CC[C@](C)(O)CC6)c([N+](=O)[O-])c5)c(Oc5cnc6[nH]cc(F)c6c5)c3)C4)[C@H](c3ccccc3C(C)C)C2)cc2c1OCC2(C)C	1.5

* * *

- method.description: Metabolic Stability Study, liver microsome incubation (human)
- Assay type: in vitro ADME
- test.conditions: human liver microsomes 0.5 mg/mL, 1 μM compound, NADPH; read-out: CLint (μL × min^−1 × mg^−1) Human

compound	limit.operator	microsomal CLint at 1 μM / µL/min/mg
COc1cc(CN2CCN(C3CC4(C3)CN(c3ccc(C(=O)NS(=O)(=O)c5ccc(NC[C@H]6CC[C@](C)(O)CC6)c([N+](=O)[O-])c5)c(Oc5cnc6[nH]cc(F)c6c5)c3)C4)[C@H](c3ccccc3C(C)C)C2)ccc1N1CCOCC1 [Example 361]	<	1
COc1cc(CN2CCN(C3CC4(C3)CN(c3ccc(C(=O)NS(=O)(=O)c5ccc(NC[C@H]6CC[C@](C)(O)CC6)c([N+](=O)[O-])c5)c(Oc5cnc6[nH]cc(F)c6c5)c3)C4)[C@H](c3ccccc3C(C)C)C2)cc(F)c1OC [Example 230]	=	3.7

* * *

- target: Recombinant human Bcl-2 protein (Homo sapiens (Human))
- method.description: Bcl-2 TR-FRET Assay
- Format: binding
- test.conditions: Bcl-2 wild type, TR-FRET; read-out: Biochemical assay (IC50, nM) Bcl-2 WT
parameter: IC50 (nM)

molecule	unit.of.measurement	numeric.result
CC(C)c1ccccc1C1CC(Oc2ccccc2)CCN1C1CC2(CCN(c3ccc(C(=O)NS(=O)(=O)c4ccc(NC[C@H]5CC[C@](C)(O)CC5)c([N+](=O)[O-])c4)c(Oc4cnc5[nH]ccc5c4)c3)CC2)C1 (some centres unmarked)	nM	0.2
COc1ccc(CN2CCN(C3CC4(CCN(c5ccc(C(=O)NS(=O)(=O)c6ccc(NCC7CCOCC7)c([N+](=O)[O-])c6)c(Oc6cnc7[nH]ccc7c6)c5)CC4)C3)[C@H](c3ccccc3C(C)C)C2)cc1 (single isomer, unassigned)	nM	0.041

* * *

- target: recombinant human Bcl-2 D103Y protein (Homo sapiens (Human), UniProt P10415, D103Y)
- method.description: Bcl-2-D103Y Biochemical Assay (TR-FRET)
- Type: binding
- test.conditions: comparison in words
parameter: ratio of Bcl-2 D103Y/Bcl-2 wt, compared with F91b in WO2019210828

compound	result
COc1ccc(CN2CCN(C3CC4(CCN(c5ccc(C(=O)NS(=O)(=O)c6ccc(NC[C@@H]7CN(C8COC8)CCO7)c([N+](=O)[O-])c6)c(Oc6cnc7[nH]ccc7c6)c5)CC4)C3)[C@@H](c3ccccc3C(C)C)C2)cc1 (single isomer, unassigned)	significantly lower
COc1ccc(CN2CCN(C3CC4(C3)CN(c3ccc(C(=O)NS(=O)(=O)c5ccc(NC[C@H]6CC[C@](C)(O)CC6)c([N+](=O)[O-])c5)c(Oc5cnc6[nH]ccc6c5)c3)C4)C(c3ccccc3C(C)C)C2)cc1 (some centres unmarked)	significantly lower
COc1ccc(CN2CCN(C3CC4(C3)CN(c3ccc(C(=O)NS(=O)(=O)c5ccc(NC[C@H]6CC[C@](C)(O)CC6)c([N+](=O)[O-])c5)c(Oc5cnc6[nH]cc(F)c6c5)c3)C4)[C@H](c3ccccc3C(C)C)C2)cc1OC [Example 141a]	significantly lower
CC(C)c1ccccc1C1CN(C(C)c2ccccc2)CCN1C1CC2(CCN(c3ccc(C(=O)NS(=O)(=O)c4ccc(NC[C@H]5CC[C@](C)(O)CC5)c([N+](=O)[O-])c4)c(Oc4cnc5[nH]ccc5c4)c3)CC2)C1 (single isomer, unassigned) [Example 24b]	significantly lower
CC(C)c1ccccc1C1CN(Cc2ccc3sccc3c2)CCN1C1CC2(CCN(c3ccc(C(=O)NS(=O)(=O)c4ccc(NC[C@H]5CC[C@](C)(O)CC5)c([N+](=O)[O-])c4)c(Oc4cnc5[nH]ccc5c4)c3)CC2)C1 (some centres unmarked)	significantly lower
CC(C)c1ccccc1[C@@H]1CN(Cc2cnn(C)c2)CCN1C1CC2(CCN(c3ccc(C(=O)NS(=O)(=O)c4ccc(NC[C@H]5CC[C@](C)(O)CC5)c([N+](=O)[O-])c4)c(Oc4cnc5[nH]ccc5c4)c3)CC2)C1 (single isomer, unassigned) [Example 22a]	significantly lower
CC(C)c1ccccc1C1CN(Cc2cccc3sccc23)CCN1C1CC2(CCN(c3ccc(C(=O)NS(=O)(=O)c4ccc(NC[C@H]5CC[C@](C)(O)CC5)c([N+](=O)[O-])c4)c(Oc4cnc5[nH]ccc5c4)c3)CC2)C1 (some centres unmarked)	significantly lower
COc1ccc(CN2CCN(C3CC4(CCN(c5ccc(C(=O)NS(=O)(=O)c6ccc(NC[C@H]7CC[C@](C)(O)CC7)c([N+](=O)[O-])c6)c(Oc6cnc7[nH]cc(F)c7c6)c5)CC4)C3)[C@H](c3ccccc3C(C)C)C2)cc1OC	significantly lower

These data points were gathered from patent US20240376097A1.
